assay: RPL19A-GFP modulators, yeast TOR pathway, confirmation, cell-based, S. cerevisiae, flow cytometry, cherry picks, mother/daughter gates (AID 2270); conditions: S. cerevisiae RPL19A-GFP strain, 3 h, measured here: daughter cell gate, at 10 µM, stronger effect = lower value, 100 = same GFP as DMSO wells
observation type: GFP response vs DMSO (%)
One number for each entry, in %.

CC(C)C(=O)Nc1ccc(NC(=O)c2cc3ccccc3o2)cc1 | 100

For each of the compounds below, note its GFP response vs DMSO.
1. Cc1cc(C)c(S(=O)(=O)ON2C(=O)c3ccccc3C2=O)cc1C
2. COc1ccc(-c2cc(C(F)(F)F)nc(N3CCOCC3)n2)cc1OC

[90.8, 100]
